Listing of entries alongside the reported pKd.
target: T1, human complement protein C5 (human, UniProt P01031 19-1676); assay: SPR (Biacore)
T1 construct: Native C5 is a two-chain protein made from one precursor; also called hC5; human C5
pKd: −log10 of the molar value.
Readout kind: pKd

| Binder | Reported |
| --- | --- |
| LCP0123 (VHH, llama anti-C5 VHH, tested as VHH-His fusion; not shown: His-tag) VHH: EVQLVESGGGLVQAGGSLTLSCAMSGGTRPFEDYVMAWFRQATGKEREFVATITWMGETTYYKDSVNGRFAISRDNAENTVALQMNSLEPEDTAVYFCAAHSRSSFSTSGGRYNPRPTEYDYWGQGTQVTVSS | 8.70 |
| LCP0296 (VHH, llama anti-C5 VHH, tested as VHH-His fusion; not shown: His-tag) VHH: EVQLVESGGGVVQAGDSLTLTCTAPVGTISDYGMGWFRQAPGKEREFVASISWGGMWTDYADSVKGRFTISRDNDKNAVYLRMNSLNAEDTAVYYCGRGRMYRGIGNSLAQPKSYGYWGQGTQVTVSS | 9.38 |
| LCP0136 (VHH, llama anti-C5 VHH, tested as VHH-His fusion; not shown: His-tag) VHH: EVQLVESGGGLVQPGESLRLSCAISGFAFTDVGMSWVRQAPGKGLEWVSSISSGSSITTYSDSVKGRFTISRDNARNTLFLQMNSLKPEDTAVYYCGRYYCTGLGCHPRRDSALWGQGTQVTVSS | 8.74 |
| LCP0302 (VHH, llama anti-C5 VHH, tested as VHH-His fusion; not shown: His-tag) VHH: EVQLVESGGGLVQAGGSLRLSCAASGRTFSGILSAYAVGWFRQAPGKEREFVSTITSGGSTLSADSVKGRFTLSRDNAKDTVYLQMNSLKPEDTAVYYCAVRTWPYGSNRGEVPTENEYGHWGQGTQVTVSS | 9.71 |
